The origin of these recorded values is patent US20260337190A1.

Assay: Human liver microsome stability
Format: in vitro ADME
Conditions: human liver microsomes, 30 min, 37 °C, NADPH; read-out: Remaining percentage of compound after incubation for 30 min

| COMPOUND | remaining at 0.5 h / % |
| --- | --- |
| Cc1nc(N[C@H](C)c2cccc(S(F)(F)(F)(F)F)c2)c2cn(C3(CF)CC3)c(=O)cc2n1 | 98.7 |
| Cc1nc(N[C@H](C)c2cccc(C(F)(F)F)c2C)c2cn(C3(CF)CC3)c(=O)cc2n1 [Control compound 1, reference compound] | 70.2 |

====

Experiment: Dynamic solubility in water, SGF, FaSSIF and FeSSIF
Format: physicochemical
Conditions: SGF, 1 hour, 37 °C
Counter-ions that a name gives are not always drawn.
Decide using pH of filtrate: a value greater than or equal to 2 is Y, a smaller one is N.

| MOLECULE | ASSIGNED CLASS |
| --- | --- |
| Cc1nc(N[C@H](C)c2cccc(S(F)(F)(F)(F)F)c2)c2cn(C3(CF)CC3)c(=O)cc2n1 [Crystal form A of compound of formula I] | Y |
| Cc1nc(N[C@H](C)c2cccc(S(F)(F)(F)(F)F)c2)c2cn(C3(CF)CC3)c(=O)cc2n1 [Crystal form A of ethanesulfonate salt] | N |
| Cc1nc(N[C@H](C)c2cccc(S(F)(F)(F)(F)F)c2)c2cn(C3(CF)CC3)c(=O)cc2n1 [Crystal form B of citrate salt] | Y |
| Cc1nc(N[C@H](C)c2cccc(S(F)(F)(F)(F)F)c2)c2cn(C3(CF)CC3)c(=O)cc2n1 [Crystal form A of methanesulfonate salt] | N |
| Cc1nc(N[C@H](C)c2cccc(S(F)(F)(F)(F)F)c2)c2cn(C3(CF)CC3)c(=O)cc2n1 [Crystal form A of fumarate salt] | N |
